Measurement Parameters: in water, 313.15 K
Experimental Endpoint: solubility (mole fraction)
// no unit, no text: just the number

Summary for this compound, COC(=O)c1ccnc(N)c1 : solubility (mole fraction) is 0.00356

###

Measurement Parameters: in DMF, 278.15 K
Experimental Endpoint: solubility (mole fraction)
// no unit, no text: just the number

Summary for this compound, COC(=O)c1ccnc(N)c1 : solubility (mole fraction) is 0.00726

###

Measurement Parameters: in acetonitrile, 313.15 K
Experimental Endpoint: solubility (mole fraction)
// no unit, no text: just the number

Summary for this compound, COC(=O)c1ccnc(N)c1 : solubility (mole fraction) is 0.0206
